Tested on: NCI-H522 lung
Assay Info: NCI tumour cell line growth inhibition, 48 h
For each entry below, report its TGI value.
Give your result in µM as a bare value.

In: Using the record for `CS(=O)(=O)Nc1cc(-c2ccc3ncnc(Nc4ccc5c(cnn5Cc5ccc(F)cc5)c4)c3c2)cnc1Cl` , report its TGI.
Out: 12.8

In: Using the record for C=CCc1ccc(O)c(-c2cc(C3Oc4c(-c5cc(CC=C)ccc5O)cc(O)cc4[C@@H]3CO)ccc2O)c1 (some centres undefined) , report its TGI.
Out: 38.7

In: Using the record for `Cc1c(C)c2ccc(OC/C=C3\CCC(=O)O3)cc2oc1=O` , report its TGI.
Out: 23.7

In: Using the record for COC(=O)[C@@]12OC[C@]34C([C@@H](O)C1O)[C@@]1(C)CC(=O)C(O)=C(C)C1C[C@H]3OC(=O)[C@H](OC(=O)CC(C)C(F)(F)F)[C@H]42 (some centres undefined) , report its TGI.
Out: 0.088

###

Tested on: HL-60(TB) leukemia
Assay Info: NCI tumour cell line growth inhibition, 48 h
Measurement Type: TGI (µM)
Give your result in µM as a bare value.

In: Provide value of TGI for this record tested with HL-60(TB) leukemia: CC(CCc1ccc2c(c1)c(=N)c1ccc(N)cc1n2O)CC(C)(C)C (stereo not given)
Out: 3.42

In: Provide value of TGI for this record tested with HL-60(TB) leukemia: C=C[C@]1(C)C=C2C(=O)[C@@]3(O)OC[C@@]4(CCCC(C)(C)C43O)C2(O)C(O)C1 (stereo not given in full)
Out: 13

In: Provide value of TGI for this record tested with HL-60(TB) leukemia: `Cc1nnc2sc(-c3ccc(-c4ccccc4Cl)o3)nn12`
Out: 63.3

In: Provide value of TGI for this record tested with HL-60(TB) leukemia: `S=c1ssc(Sc2ccccn2)c1Cl`
Out: 9.78

In: Provide value of TGI for this record tested with HL-60(TB) leukemia: O=C1CCC2(c3ccccc3)Nc3cc(Cl)ccc3N12 (stereo not given)
Out: 48.1

In: Provide value of TGI for this record tested with HL-60(TB) leukemia: COC(=O)[C@@]12OC[C@]34C([C@@H](O)C1O)[C@@]1(C)CC(=O)C(O)=C(C)C1C[C@H]3OC(=O)[C@H](OC(=O)CC(C)C(F)(F)F)[C@H]42 (stereo not given in full)
Out: 0.0175

In: Provide value of TGI for this record tested with HL-60(TB) leukemia: `CCOC(=O)c1c(C)n(Cc2ccc(Cl)cc2Cl)c2c1cc1oc(=O)c(=O)n3c(Cc4ccccc4)nc2c13`
Out: 6.09

In: Provide value of TGI for this record tested with HL-60(TB) leukemia: `CC(C)OC(=O)c1ccc2[nH]c(O)c(C(=Nc3ccc(N(C)C(=O)CN4CCN(C)CC4)cc3)c3ccccc3)c2c1`
Out: 1.18

In: Provide value of TGI for this record tested with HL-60(TB) leukemia: `Cc1c2cnccc2nc2[nH]c3ccncc3c12`
Out: 61.9

In: Provide value of TGI for this record tested with HL-60(TB) leukemia: `CCCCC[C@H]1C/C=C2/C(=O)C(Cl)=C[C@@H]2C/C=C\CCCC(=O)O[C@@H](CCCCC)C/C=C2/C(=O)C(Cl)=C[C@@H]2C/C=C\CCCC(=O)O1`
Out: 1.27

In: Provide value of TGI for this record tested with HL-60(TB) leukemia: `CC(C)(C)OC(=O)CN1CCNCCN(CC(=O)OC(C)(C)C)CC1`
Out: 86.1

In: Provide value of TGI for this record tested with HL-60(TB) leukemia: O=C1CC2C(=O)N(Cc3ccccc3)C1C(S(=O)(=O)c1ccccc1)C2S(=O)(=O)c1ccccc1 (stereo not given)
Out: 3.51

In: Provide value of TGI for this record tested with HL-60(TB) leukemia: `Cn1cc(-c2ccc3c(c2)CCN3C(=O)Cc2cccc(C(F)(F)F)c2)c2c(N)ncnc21`
Out: 33

In: Provide value of TGI for this record tested with HL-60(TB) leukemia: `Cn1c(COC(=O)NC2CCCCC2)c(COC(=O)NC2CCCCC2)c2ccc3cc(Cl)c(Cl)cc3c21`
Out: 26.4

In: Provide value of TGI for this record tested with HL-60(TB) leukemia: O=C(NN1C(=O)CSC1c1ccc(Cl)cc1)c1[nH]c2ccc(F)cc2c1-c1ccccc1 (stereo not given)
Out: 7.71

In: Provide value of TGI for this record tested with HL-60(TB) leukemia: `Nc1nc(Nc2cccc(F)c2)nc2ccccc12`
Out: 68.4

In: Provide value of TGI for this record tested with HL-60(TB) leukemia: `CC(C)N1CSC(=S)N(Cc2ccccc2)C1`
Out: 0.652

In: Provide value of TGI for this record tested with HL-60(TB) leukemia: `O=C(Nc1ccc2c(c1)oc(=O)c1ccccc12)C(Cl)Cl`
Out: 25.5

In: Provide value of TGI for this record tested with HL-60(TB) leukemia: Cc1ccc2c(c1)ncn2-c1ncnc2c1CC(C)c1ccccc1N2C (stereo not given)
Out: 0.0781

In: Provide value of TGI for this record tested with HL-60(TB) leukemia: O=C(Nc1ccc([N+](=O)[O-])cc1)C(=O)C(C(=O)c1ccccc1F)C1OC(=O)c2ccccc21 (stereo not given)
Out: 66.1
